- Target desc: T1, HLA A*0101 presenting HCMV pp65 peptide […] on cells (human HLA-A*01:01 and B2M; HCMV pp65 …, strain)
- T1 construct: copies: + +
- Assay name: flow cytometry on cells
- Condition notes: one partner purified
Assay metric: binding result

1) biotinylated Fab A6 (Fab, V domains shown, source: E. coli TG1, biotinylated in vivo, purified (IMAC, Talon beads)) VH: EVQLVQSGAEVKKPGASVKVSCKASGYTFTSYYMHWVRQSPGQGLEWMGIINPSGGSTSYAQKFQGRVTMTRDTSTSTVYMELSSLRSEDTAVYYCARNGYCSSTSCYDAFDIWGQGTMVTVSS VL: QSALTQPASVSGSPGQSITISCTGTSSDVGGYNYVSWYQQHPGKAPKVLIYDVNQRISGVPDRFSGSKSGNTASLTISGLQAEDEADYYCCSYAGSSSWVFGGGTRLTVL: binds
